Tested on: SK-OV-3 ovarian
Assay: NCI-60 one-dose screen, 48 h (100 = growth as untreated, 0 = no growth, -100 = all killed)
Conditions: 10 µM unless noted
Experimental: Growth inhibition of the SK-OV-3 human tumor cell line is measured as a screen for anti-cancer activity. Cells are grown in 96 well plates and exposed to the test compound for 48 hours. Compounds are tested at a single concentration, which is 10^-5 M for most compounds. The reported endpoint is percent growth (GI% or GIPRCNT), where numbers from 0 - 100% represent growth inhibition, and numbers from -100% - 0 represent cell death. For example, a value of 40 represents 60% growth inhibition. […]
This is part of a sample that, as a whole, favours compounds with a hit. Of some 83,000 tested, about 20% had one in any assay.
Provide the reported growth of each item.
Give your result in % as a bare value.

Tell me growth reported for `NC1=CC(=O)C(=O)c2ccccc21`
92.6

Tell me growth reported for C=C1CC[C@@H]2[C@](C)(COC(C)=O)[C@H](OC(C)=O)CC[C@@]2(C)[C@@H]1CC(Nc1ccc(S(=O)(=O)Nc2ccc(Cl)nn2)cc1)C1=CCOC1=O (stereo not given in full)
86.1

Tell me growth reported for OC(c1cc(-c2ccccc2)nc2ccc(Cl)cc12)C1CCCCN1 (stereo not given)
89.1

Tell me growth reported for `CC/C=C\C[C@H](O)C/C=C1/C(=O)C=C[C@@H]1C/C=C\CCCC(=O)NC`
11.4

Tell me growth reported for `COc1ccc(-c2c3c(nc4n[nH]c(-c5ccc(Cl)cc5)c24)-c2ccccc2C(=O)C3=O)cc1`
42.5

---

system: BT-549 breast; experiment: NCI-60 one-dose screen, 48 h (100 = growth as untreated, 0 = no growth, -100 = all killed); conditions: 10 µM unless noted
The panel holds about 83,000 compounds, 20% with a hit somewhere; the sample as a whole holds those more often.
# note: exactly 50% is not below, so it is criterion not met; use criterion met for growth strictly under it

Determine if CS(=O)CCCCCN=C=S (stereo not drawn) shows growth strictly lower than 50%.
criterion met

Determine if `O=C(O)c1cccnc1Br` shows growth strictly lower than 50%.
criterion not met

Determine if C=C1CCC2C3(C)COC(c4cccc(Cl)c4)OC3CCC2(C)C1/C=C/C1=CCOC1=O (stereo not drawn) shows growth strictly lower than 50%.
criterion not met

Determine if `CC/C(Cc1ccccc1)=C(/c1ccc(O)cc1)c1ccc(OCCN2CCCC2)cc1` shows growth strictly lower than 50%.
criterion met

Determine if `COc1cccc(-c2nc3sccn3c2-c2ccnc(NCCCNS(=O)(=O)c3ccc(Cl)cc3)c2)c1` shows growth strictly lower than 50%.
criterion met

Determine if `Nc1c(C(=O)Nc2ccccc2Cl)sc2nc3c(cc12)CCCCCC3` shows growth strictly lower than 50%.
criterion met

Determine if CCN(CC)CC(O)c1cc(-c2ccc(Cl)cc2)nc2c(C)c(Cl)ccc12 (stereo not drawn) shows growth strictly lower than 50%.
criterion met

Determine if `Nc1nc(-c2ccc(F)cc2)cc(-c2cnn(-c3ccccc3)n2)n1` shows growth strictly lower than 50%.
criterion not met

Determine if `COc1cc(-c2c3c(nc4c2c(C)nn4-c2ccccc2)-c2ccccc2C(=O)C3=O)cc(OC)c1OC` shows growth strictly lower than 50%.
criterion not met

Determine if `O=C1Nc2ccccc2/C1=C/C(=N/c1nnc(-c2ccccc2)s1)c1ccccc1` shows growth strictly lower than 50%.
criterion not met

Determine if CCCCCCCCCCCCS(=O)CC(C)O (stereo not drawn) shows growth strictly lower than 50%.
criterion not met

Determine if `COc1cc(-c2cc(-c3nc4ccc(Cl)cc4[nH]3)[nH]n2)cc(OC)c1OC` shows growth strictly lower than 50%.
criterion met

Determine if `Cn1c2c(Cl)c(Cl)ccc2c2ccn3c(=O)c4ccccc4nc3c21` shows growth strictly lower than 50%.
criterion not met

Determine if `COc1ccc(C(=O)/C=C/c2c(Cl)c3c(c(OC)c2Cl)OCC(=O)N3)cc1` shows growth strictly lower than 50%.
criterion met

Determine if O=C(NC(Cc1ccccc1)C(=O)CCl)OCc1ccccc1 (stereo not drawn) shows growth strictly lower than 50%.
criterion met

Determine if `Cc1cccc(NC(=O)c2sc3nc4c(cc3c2N)C(=O)CCC4)c1` shows growth strictly lower than 50%.
criterion met

Determine if `O=C(/C=C/c1ccc(B(O)O)cc1)/C=C/c1ccc(B(O)O)cc1` shows growth strictly lower than 50%.
criterion met

Determine if `COc1ccc(CCN2CCCn3c2nc2ccccc2c3=O)cc1` shows growth strictly lower than 50%.
criterion met

Determine if `O=C1c2cc3c(cc2-c2c1c1cc(Cl)c(Cl)cc1c(=O)n2C[C@H](O)CO)OCO3` shows growth strictly lower than 50%.
criterion met

Determine if `COc1ccc(Cl)cc1Nc1nc(C(F)(F)F)ccc1C(=O)N/N=C/c1cccnc1` shows growth strictly lower than 50%.
criterion met

Determine if `COc1cc(OC)c(/C=C/S(=O)(=O)Cc2cnc(OC)c(N)c2)c(OC)c1` shows growth strictly lower than 50%.
criterion met

Determine if `COc1ccc(S(=O)(=O)NCCCNc2nccc(-c3c(-c4cccc(N)c4)nc4sccn34)n2)cc1` shows growth strictly lower than 50%.
criterion not met

Determine if `Nc1c(C(=O)Nc2cccc3c2OCCO3)sc2nc3c(cc12)C(=O)CCC3` shows growth strictly lower than 50%.
criterion not met

Determine if `Cc1ccc(Nc2nc(N)nc(Nc3ccc4ccccc4c3)n2)cc1` shows growth strictly lower than 50%.
criterion met

Determine if `COc1ccc(C/C(C)=C(\c2ccc(Cl)cc2)c2ccc(OCCN3CCCCCC3)cc2)cc1` shows growth strictly lower than 50%.
criterion not met

Determine if `O=C1C=CC(=O)c2c1nc1n2CCCC1` shows growth strictly lower than 50%.
criterion not met

Determine if `C=C1C(=O)O[C@H]2[C@H]1CC/C(Cn1cc(Cn3ccc4cc(Cl)ccc43)nn1)=C\CC[C@@]1(C)O[C@@H]21` shows growth strictly lower than 50%.
criterion met

Determine if `COc1cccc(NC(=O)c2sc3nc4c(cc3c2N)CN(Cc2ccccc2)CC4)c1` shows growth strictly lower than 50%.
criterion not met

Determine if `O=C1c2cc3c(cc2-c2c1c1cc(Cl)c(Cl)cc1c(=O)n2CCCn1ccnc1)OCO3` shows growth strictly lower than 50%.
criterion met

Determine if Cc1noc(C)c1-c1cc(O)cc(C(O)c2ccccc2)c1 (stereo not drawn) shows growth strictly lower than 50%.
criterion not met

Determine if `COc1ccc(-c2cc(C(=O)N=Nc3c(O)[nH]c4ccccc34)no2)cc1` shows growth strictly lower than 50%.
criterion not met

Determine if `Oc1ccc2c(=S)cc(-c3ccc(Br)cc3)oc2c1O` shows growth strictly lower than 50%.
criterion met

Determine if `O=C(/C=C\c1cccc([N+](=O)[O-])c1)c1ccccc1` shows growth strictly lower than 50%.
criterion not met

Determine if O=C1CC(c2nc3ccccc3[nH]2)CN1C1CCCCC1 (stereo not drawn) shows growth strictly lower than 50%.
criterion not met

Determine if `C(=N\Nc1nnn(Cc2ccccc2)n1)/c1ccccc1` shows growth strictly lower than 50%.
criterion met

Determine if CCCCCCCCCCCCN1CCCC(C)C1 (stereo not drawn) shows growth strictly lower than 50%.
criterion not met

Determine if `Cc1ccc2c(c1)n([O-])c1cc(Cl)ccc1[n+]2=O` shows growth strictly lower than 50%.
criterion not met

Determine if `Cc1cc(Cl)ccc1Nc1nc(C(F)(F)F)ccc1C(=O)N/N=C/c1ccc(F)cc1` shows growth strictly lower than 50%.
criterion met

Determine if `COc1ccc(C(=O)/C=C/c2cc3ccccc3[nH]c2=O)cc1` shows growth strictly lower than 50%.
criterion met

Determine if `Cc1[nH]n(-c2ccccc2)c2nc3nncc3c(-c3ccc(Cl)cc3)c12` shows growth strictly lower than 50%.
criterion not met

Determine if COCCOC(=O)C1=C(C)NC(=S)NC1c1ccc2c(c1)OCO2 (stereo not drawn) shows growth strictly lower than 50%.
criterion not met

Determine if `CC/C=C\C[C@H](O)C/C=C1/C(=O)C=C[C@@H]1C/C=C\CCCC(N)=O` shows growth strictly lower than 50%.
criterion met

Determine if `O=C1C=CC(=O)N1c1ccc(Cc2ccc(N3C(=O)C=CC3=O)cc2)cc1` shows growth strictly lower than 50%.
criterion not met
